Measured reverse-splicing fitness values are reported for all entries that follow.
B1: Azoarcus group I ribozyme (parent)
chain: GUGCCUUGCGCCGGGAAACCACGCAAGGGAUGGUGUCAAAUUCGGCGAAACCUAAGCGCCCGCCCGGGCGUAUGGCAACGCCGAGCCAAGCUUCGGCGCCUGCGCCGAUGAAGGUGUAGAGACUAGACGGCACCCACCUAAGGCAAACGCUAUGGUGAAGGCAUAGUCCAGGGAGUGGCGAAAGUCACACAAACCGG

Variants of: B1
Assay Comment: reverse-splicing fitness (ratio to wild type); higher = more active; in vitro selection; Mg2+ level not given
Give the figure only, with no unit attached.

// solved cases for reverse-splicing fitness follow
mutant_designation="C82A A111G C150U C169G U176C" measurement=0.0194
mutant_designation="C82A A111C A145U U176G" measurement=0.0235
mutant_designation="C82G A111G A120C A145G C150G C169U U176G" measurement=0.00784
mutant_designation="C82U A111U A120C A145C C169U" measurement=0.011
mutant_designation="C82U A111C A120G A145G C150A C169G U176C" measurement=0.0241

**Q:** Please look up its reverse-splicing fitness: C82G A111U A145U C150G C169A
**A:** 0.00951

**Q:** Please look up its reverse-splicing fitness: C82A A111G A120U A145U C150U C169U
**A:** 0.00376

**Q:** Please look up its reverse-splicing fitness: A111C A120G A145U C150G C169A
**A:** 0.0153

**Q:** Please look up its reverse-splicing fitness: C82A A111C A120C C150G C169A U176G
**A:** 0.00778

**Q:** Please look up its reverse-splicing fitness: C82G A111C A145C C150G C169G
**A:** 0.00675

**Q:** Please look up its reverse-splicing fitness: C82G A111G A120C C150U U176C
**A:** 0.0344

**Q:** Please look up its reverse-splicing fitness: A111G A120U A145G C150A C169A U176A
**A:** 0.00539

**Q:** Please look up its reverse-splicing fitness: C82G A111C A120U A145U U176A
**A:** 0.0115

**Q:** Please look up its reverse-splicing fitness: C82A A111U A145C C169G U176C
**A:** 0.0185

**Q:** Please look up its reverse-splicing fitness: A111G A120G A145U C169U U176A
**A:** 0.0839

**Q:** Please look up its reverse-splicing fitness: C82U A120C A145U
**A:** 0.155

**Q:** Please look up its reverse-splicing fitness: C82A A111U A145C C169U U176C
**A:** 0.0102

**Q:** Please look up its reverse-splicing fitness: C82U A111C A120U A145U C150A C169G U176A
**A:** 0.00239

**Q:** Please look up its reverse-splicing fitness: C82A A111G A120U A145G C150U C169G U176C
**A:** 0.00643
